target: UniProtKB P35439; assay: Displacement of [3H]-5-7 dichlorokynurenic acid ([3H]- DCKA) from N-methyl-D-aspartate glutamate receptor glycine site of rat brain membrane homogenate
// returns not fulfilled unless Ki is strictly below 50 nM, in which case fulfilled

Look over these answered cases.
O=c1[nH]c2cc(Cl)ccc2c(O)c1-c1cccc(Oc2ccccc2)c1	fulfilled
O=C(CCl)Nc1ccccc1Oc1cccc(-c2c(O)nc3cc(Cl)ccc3c2O)c1	fulfilled
O=C(CCl)Nc1c(-c2cccc(Oc3ccccc3)c2)c(=O)[nH]c2cc(Cl)ccc12	not fulfilled

# check: Ki < 50 nM for `O=c1[nH]c2cc(Cl)ccc2c(O)c1-c1cccc(Oc2ccccc2NCCS(=O)(=O)F)c1`
fulfilled

Please state whether Ki is below 50 nM for `N#[N+]c1ccc2c(O)c(-c3cccc(Oc4ccccc4)c3)c(O)nc2c1`
not fulfilled

Dear colleague, could you confirm whether Ki of `O=c1[nH]c2cc(N=C=S)ccc2c(O)c1-c1cccc(Oc2ccccc2)c1` falls below 50 nM? Thanks.
not fulfilled

====

target: Glutamate NMDA receptor; Grin1/Grin2b (Rattus norvegicus, UniProt P35439+Q00960); test: Antagonistic activity for suppression of membrane current response elicited by fixed concentration of glycine and glutamate in Xenopus oocyte expressing N-methyl-D-aspartate glutamate receptor 1/2B
Sequence (Q00960 whole entry, other chains not shown): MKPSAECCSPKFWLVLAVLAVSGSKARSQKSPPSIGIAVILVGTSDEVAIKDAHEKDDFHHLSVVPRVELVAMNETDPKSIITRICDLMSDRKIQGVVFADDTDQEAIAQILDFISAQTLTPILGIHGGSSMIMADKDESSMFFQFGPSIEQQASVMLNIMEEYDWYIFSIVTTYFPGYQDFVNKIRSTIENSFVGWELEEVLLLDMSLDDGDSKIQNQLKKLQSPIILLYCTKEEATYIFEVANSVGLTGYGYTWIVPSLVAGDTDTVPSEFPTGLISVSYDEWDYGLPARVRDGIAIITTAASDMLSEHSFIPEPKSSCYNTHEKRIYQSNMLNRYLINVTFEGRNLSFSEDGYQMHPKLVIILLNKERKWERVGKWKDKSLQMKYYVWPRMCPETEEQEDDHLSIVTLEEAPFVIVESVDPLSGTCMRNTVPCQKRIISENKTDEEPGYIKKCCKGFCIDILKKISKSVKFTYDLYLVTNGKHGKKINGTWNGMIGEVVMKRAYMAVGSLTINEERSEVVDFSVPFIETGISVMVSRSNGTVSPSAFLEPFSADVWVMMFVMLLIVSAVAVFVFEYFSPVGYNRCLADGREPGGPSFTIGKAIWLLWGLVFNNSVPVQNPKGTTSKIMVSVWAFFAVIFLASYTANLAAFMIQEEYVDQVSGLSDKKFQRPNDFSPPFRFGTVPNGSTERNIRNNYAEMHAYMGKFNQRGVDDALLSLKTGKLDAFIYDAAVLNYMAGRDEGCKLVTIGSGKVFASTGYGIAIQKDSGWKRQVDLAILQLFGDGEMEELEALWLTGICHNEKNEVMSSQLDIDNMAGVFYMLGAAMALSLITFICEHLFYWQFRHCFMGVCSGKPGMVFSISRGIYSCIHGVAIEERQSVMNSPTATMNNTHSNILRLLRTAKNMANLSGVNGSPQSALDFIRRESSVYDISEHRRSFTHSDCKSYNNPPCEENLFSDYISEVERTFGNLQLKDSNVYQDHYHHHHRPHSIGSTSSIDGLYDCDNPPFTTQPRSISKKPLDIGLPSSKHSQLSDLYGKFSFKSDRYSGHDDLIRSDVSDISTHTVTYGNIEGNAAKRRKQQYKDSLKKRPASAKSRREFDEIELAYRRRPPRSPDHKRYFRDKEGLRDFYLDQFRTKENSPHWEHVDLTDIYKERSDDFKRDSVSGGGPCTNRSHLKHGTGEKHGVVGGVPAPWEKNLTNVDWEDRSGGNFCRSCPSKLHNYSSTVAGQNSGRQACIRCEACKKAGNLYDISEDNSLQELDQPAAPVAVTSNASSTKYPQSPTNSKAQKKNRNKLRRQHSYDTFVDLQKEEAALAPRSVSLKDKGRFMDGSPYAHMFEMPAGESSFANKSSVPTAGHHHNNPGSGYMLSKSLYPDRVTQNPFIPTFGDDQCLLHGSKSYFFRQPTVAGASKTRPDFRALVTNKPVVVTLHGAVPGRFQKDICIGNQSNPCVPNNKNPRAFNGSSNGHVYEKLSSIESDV
value.kind: pIC50
Note on pIC50: it is the negative log10 of concentration, concentration in mol/L.

O=c1[nH]c2cc(N=C=S)ccc2c(O)c1-c1cccc(Oc2ccccc2)c1	4.62

The reported pIC50 of the compound `O=c1[nH]c2cc(Cl)ccc2c(O)c1-c1cccc(N=C=S)c1` was 6.70

Entry under test: `O=c1[nH]c2cc(Cl)ccc2c(O)c1-c1cccc(NCCS(=O)(=O)F)c1` . Its pIC50 was 6.47

====

biological target: Glutamate receptor ionotropic, NMDA 1 (Rattus norvegicus, UniProt P35439); test: Displacement of [3H]-5-7 dichlorokynurenic acid ([3H]- DCKA) from N-methyl-D-aspartate glutamate receptor glycine site of rat brain membrane homogenate; assay type: tissue-based
value.kind: Ki (µM)
Please respond with the number in µM and leave the unit unwritten.

# count of solved cases: 6
O=c1[nH]c2cc(Cl)ccc2c(O)c1-c1cccc(NCCS(=O)(=O)F)c1	0.024
O=C(CCl)Nc1ccc2c(O)c(-c3cccc(Oc4ccccc4)c3)c(=O)[nH]c2c1	0.278
O=c1[nH]c2cc(Cl)ccc2c(O)c1-c1cccc(N=C=S)c1	0.0476
O=C(CCl)Nc1cccc(Oc2cccc(-c3c(O)nc4cc(Cl)ccc4c3O)c2)c1	0.0138
O=C(CCl)Nc1ccc2c(OC(=O)CCl)c(-c3cccc(Oc4ccccc4)c3)c(=O)[nH]c2c1	0.427
O=C(CCl)Nc1cccc(-c2c(O)c3ccc(Cl)cc3[nH]c2=O)c1	0.042

Noted for `O=C(Oc1c(-c2cccc(Oc3ccccc3)c2)c(=O)[nH]c2cc(Cl)ccc12)c1ccc(S(=O)(=O)F)cc1` : its Ki reads 0.0242

====

biological target: Glutamate NMDA receptor; Grin1/Grin2b (Rattus norvegicus, UniProt P35439+Q00960); test: Antagonistic activity for suppression of membrane current response elicited by fixed concentration of glycine and glutamate in Xenopus oocyte expressing N-methyl-D-aspartate glutamate receptor 1/2B
Quick reference: IC50 of the listed items.
Answer with a number only, understood to be in nM.

The following compounds have reported results that may help.
O=C(CCl)Nc1ccc2c(OC(=O)CCl)c(-c3cccc(Oc4ccccc4)c3)c(=O)[nH]c2c1	63000
O=C(CCl)Nc1ccccc1Oc1cccc(-c2c(O)nc3cc(Cl)ccc3c2O)c1	24
O=c1[nH]c2cc(Cl)ccc2c(O)c1-c1cccc(Oc2ccccc2)c1	18
O=C(CCl)Nc1cccc(Oc2cccc(-c3c(O)nc4cc(Cl)ccc4c3O)c2)c1	39
O=C(Oc1c(-c2cccc(Oc3ccccc3)c2)c(=O)[nH]c2cc(Cl)ccc12)c1ccc(S(=O)(=O)F)cc1	2410
O=c1[nH]c2cc(Cl)ccc2c(O)c1-c1cccc(Oc2ccccc2NCCS(=O)(=O)F)c1	32

The compound identified as `O=C(CCl)Nc1ccc2c(O)c(-c3cccc(Oc4ccccc4)c3)c(=O)[nH]c2c1` registered its IC50 at 38000

Given item `O=C(CCl)Nc1cccc(-c2c(O)c3ccc(Cl)cc3[nH]c2=O)c1` , the value recorded as its IC50 is 155

Where these numbers come from: ChEMBL document CHEMBL1132451
